# ASSAY NOTES: total protein half-life in vivo (active degradation + dilution); higher = more stable protein
# MEASUREMENT PARAMETERS: E. coli NCM3722 delta-clpP delta-lon delta-hslV; growth: N-lim chemostat; doubling time 6 h
VALUE KIND: total protein half-life in vivo (h)
Answers are plain numbers, in h.

Worked set:
| SEQUENCE ENTRY | MEASUREMENT UNITS | total protein half-life in vivo |
| --- | --- | --- |
| MNIVVLISGNGSNLQAIIDACKTNKIKGTVRAVFSNKADAFGLERARQAGIATHTLIASAFDSREAYDRELIHEIDMYAPDVVVLAGFMRILSPAFVSHYAGRLLNIHPSLLPKYPGLHTHRQALENGDEEHGTSVHFVTDELDGGPVILQAKVPVFAGDSEDDITARVQTQEHAIYPLVISWFADGRLKMHENAAWLDGQRLPPQGYAADE | h | 4.88 |
| MAVQKNVIKGILAGTFALMLSGCVTVPDAIKGSSPTPQQDLVRVMSAPQLYVGQEARFGGKVVAVQNQQGKTRLEIATVPLDSGARPTLGEPSRGRIYADVNGFLDPVDFRGQLVTVVGPITGAVDGKIGNTPYKFMVMQVTGYKRWHLTQQVIMPPQPIDPWFYGGRGWPYGYGGWGWYNPGPARVQTVVTE [P0AA91] | h | 6.07 |

Here's the next entry for you.
# total protein half-life in vivo lookup, item MIGRLLRGGFMTAIYAYLYIPIIILIVNSFNSSRFGINWQGFTTKWYSLLMNNDSLLQAAQHSLTMAVFSATFATLIGSLTAVALYRYRFRGKPFVSGMLFVVMMSPDIVMAISLLVLFMLLGIQLGFWSLLFSHITFCLPFVVVTVYSRLKGFDVRMLEAAKDLGASEFTILRKIILPLAMPAVAAGWVLSFTLSMDDVVVSSFVTGPSYEILPLKIYSMVKVGVSPEVNALATILLVLSLVMVIASQLIARDKTKGNTGDVK [P0AFK6]
5.93
